Listed here: items and their measured Postemergence herbicidal rating SETVI.
test system: SETVI, Green foxtail, Setaria viridis, (L.)Beau; assay: Postemergence herbicidal evaluation (Example 147); assay type: in vivo; settings: rate 0.016 kg/ha, rating scale 0-9, two to three weeks after treatment
Answer with the value's number alone.

Task: Entry CC(C)CCNS(=O)(=O)NC(=O)c1cc(-n2c(=O)cc(C(F)(F)F)n(C)c2=O)c(F)cc1Cl has what Postemergence herbicidal rating SETVI?
Result: 5.0

Task: # lookup: Postemergence herbicidal rating SETVI of Cn1c(C(F)(F)F)cc(=O)n(-c2cc(C(=O)NS(N)(=O)=O)c(Cl)cc2F)c1=O
Result: 8.0

Task: Suppose we examine the compound CCNS(=O)(=O)NC(=O)c1cc(-n2c(=O)cc(C(F)(F)F)n(C)c2=O)c(F)cc1Cl ; what Postemergence herbicidal rating SETVI value has been reported?
Result: 5.0

Task: Item CCCNS(=O)(=O)NC(=O)c1cc(-n2c(=O)cc(C(F)(F)F)n(C)c2=O)c(F)cc1Cl has what recorded Postemergence herbicidal rating SETVI?
Result: 7.0
